Taken from the MegaScale stability set (Tsuboyama et al. 2023).

B1: 6NMW (parent)
chain: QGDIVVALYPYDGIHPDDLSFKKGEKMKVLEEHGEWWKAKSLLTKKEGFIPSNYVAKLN

Variants of: B1
EXPERIMENT_NOTES: folding stability dG (cDNA display proteolysis); higher = more stable
TEST_CONDITIONS: PBS, room temperature
just bin them by folding stability dG: low (below 2 kcal/mol), intermediate (2 kcal/mol to below 3 kcal/mol), high (3 kcal/mol or more)

input: In plain terms, what class is E32W ?
output: high

input: In plain terms, what class is V55I ?
output: intermediate

input: In plain terms, what class is G24D ?
output: intermediate

input: In plain terms, what class is G34H ?
output: low

input: In plain terms, what class is E25I ?
output: low

input: In plain terms, what class is A56L ?
output: high

input: In plain terms, what class is I4Q ?
output: low

input: In plain terms, what class is E47D ?
output: low

input: In plain terms, what class is W36I ?
output: high

input: In plain terms, what class is A56I ?
output: high

input: In plain terms, what class is A39M ?
output: low

input: In plain terms, what class is T44Y ?
output: low

input: In plain terms, what class is Y9V ?
output: intermediate

input: In plain terms, what class is Q1N ?
output: high

input: In plain terms, what class is P10R ?
output: high

input: In plain terms, what class is D12G ?
output: intermediate

input: In plain terms, what class is S52M ?
output: high

input: In plain terms, what class is L42S ?
output: low

input: In plain terms, what class is S20K ?
output: intermediate

input: In plain terms, what class is P10W ?
output: intermediate

input: In plain terms, what class is K28R ?
output: high

input: In plain terms, what class is G13H ?
output: low

input: In plain terms, what class is S20V ?
output: intermediate

input: In plain terms, what class is K26H ?
output: high

input: In plain terms, what class is S41T ?
output: low

input: In plain terms, what class is K26G ?
output: low

input: In plain terms, what class is Y54C ?
output: intermediate

input: In plain terms, what class is Y9N ?
output: low

input: In plain terms, what class is F49A ?
output: low

input: In plain terms, what class is G48W ?
output: low

input: In plain terms, what class is L8K ?
output: intermediate

input: In plain terms, what class is D12N ?
output: high

input: In plain terms, what class is A56T ?
output: high

input: In plain terms, what class is G34F ?
output: low

input: In plain terms, what class is V6D ?
output: low

input: In plain terms, what class is K26M ?
output: high

input: In plain terms, what class is E35Y ?
output: high

input: In plain terms, what class is K46R ?
output: high

input: In plain terms, what class is Y54I ?
output: intermediate

input: In plain terms, what class is V29L ?
output: high

input: In plain terms, what class is A56Y ?
output: high

input: In plain terms, what class is D17Y ?
output: high

input: In plain terms, what class is L19R ?
output: low

input: In plain terms, what class is N53T ?
output: high

input: In plain terms, what class is F21Q ?
output: low

input: In plain terms, what class is K57N ?
output: intermediate

input: In plain terms, what class is I50M ?
output: low

input: In plain terms, what class is G34Q ?
output: low

input: In plain terms, what class is A39T ?
output: low

input: In plain terms, what class is Y11H ?
output: low

input: In plain terms, what class is H33I ?
output: high

input: In plain terms, what class is K22M ?
output: high

input: In plain terms, what class is K38I ?
output: high

input: In plain terms, what class is K28D ?
output: low

input: In plain terms, what class is I4T ?
output: intermediate

input: In plain terms, what class is L42C ?
output: high

input: In plain terms, what class is A56M ?
output: high

input: In plain terms, what class is L58S ?
output: intermediate

input: In plain terms, what class is Y9C ?
output: high

input: In plain terms, what class is A7M ?
output: low

input: In plain terms, what class is E31Q ?
output: high

input: In plain terms, what class is P10K ?
output: high

input: In plain terms, what class is L43Q ?
output: intermediate

input: In plain terms, what class is I4G ?
output: low

input: In plain terms, what class is G2Y ?
output: high
